- Tested on: Human gammaherpesvirus 4
- measurementDescription: TPA-induced EBV early antigen activation in Raji cells at 3.2 nmol relative to control
attributeMeasured: EBV-EA activation (%)
Only the number, expressed in %, is required.

Use these answered entries as a reference point.
compound	assayedSystem	attributeMeasured	observedValue
COc1ccc(C/C=C/c2ccccc2)c(O)c1O	Human gammaherpesvirus 4	EBV-EA activation	71.5
COc1cccc(OCC=C(C)C)c1C/C=C/c1ccccc1	Human gammaherpesvirus 4	EBV-EA activation	68.9
COc1ccc(C/C=C/c2ccccc2)c(OCC=C(C)C)c1	Human gammaherpesvirus 4	EBV-EA activation	67.8

So for COc1c(C/C=C/c2ccccc2)cc(C/C=C/c2ccccc2)c(O)c1OC , the logged EBV-EA activation turned out to be 75.6

So for COc1cc(/C=C/Cc2ccc(O)c(O)c2OC)ccc1O , the logged EBV-EA activation turned out to be 70.2

So for COc1ccc(C/C=C/c2ccccc2)c(O)c1OC , the logged EBV-EA activation turned out to be 76.2
